Exercise: for every item that follows, state its recorded hemolysis at 4 X MIC.
assay: Haemolytic assay; type: cell-based; details: human 'O' erythrocytes; Human RBCs, 4X MIC; read-out: Haemolysis
Give a bare numeral; the unit % is implied.

// query Field request: hemolysis at 4 X MIC | item: O=C/C=C/c1ccccc1
// result 12.8

// query Fill blank: measured hemolysis at 4 X MIC of the compound Cc1ccc(C(C)C)c(O)c1 is ____.
// result 39.4

// query Which hemolysis at 4 X MIC reading was recorded for the compound Cc1ccc(C(C)C)cc1O ?
// result 82.1

* * *

system: EAEC strains; test: Antibiotic susceptibility testing; format: cell-based, enteroaggregative Escherichia coli; conditions: strain E2; note: key: S- Sensitive; I- Intermediate; R- Resistant
Quantity name: Antibiotic Susceptibility testing; note: key: S- Sensitive; I- Intermediate; R- Resistant

| Chemical structure | Target | Value reported |
| --- | --- | --- |
| CO/N=C(\C(=O)N[C@@H]1C(=O)N2C(C(=O)O)=C(COC(C)=O)CS[C@H]12)c1csc(N)n1 | EAEC strains | R |
| CN(C)[C@@H]1C(O)=C(C(N)=O)C(=O)[C@@]2(O)C(O)=C3C(=O)c4c(O)cccc4[C@@](C)(O)[C@H]3C[C@@H]12 | EAEC strains | R |
| O=C(O)c1cn(C2CC2)c2cc(N3CCNCC3)c(F)cc2c1=O | EAEC strains | R |
| C[C@@H](O)[C@H]1C(=O)N2C(C(=O)O)=C(SCCN=CN)C[C@H]12 | EAEC strains | S |
| O=C(N[C@H](CO)[C@H](O)c1ccc([N+](=O)[O-])cc1)C(Cl)Cl | EAEC strains | S |
| CC1(C)S[C@@H]2[C@H](NC(=O)[C@H](N)c3ccccc3)C(=O)N2[C@H]1C(=O)O | EAEC strains | R |

Now for the molecule whose Antibiotic Susceptibility testing we want.
// query I would be grateful if you could share the reported Antibiotic Susceptibility testing for Cc1cc(NS(=O)(=O)c2ccc(N)cc2)no1 .
// result S
